These entries and their values trace back to patent US20250214991A1.

Molecular target: IKZF2 (Homo sapiens (Human), UniProt Q96SW2+Q9UKS7)
Sequence (Q9UKS7 whole entry): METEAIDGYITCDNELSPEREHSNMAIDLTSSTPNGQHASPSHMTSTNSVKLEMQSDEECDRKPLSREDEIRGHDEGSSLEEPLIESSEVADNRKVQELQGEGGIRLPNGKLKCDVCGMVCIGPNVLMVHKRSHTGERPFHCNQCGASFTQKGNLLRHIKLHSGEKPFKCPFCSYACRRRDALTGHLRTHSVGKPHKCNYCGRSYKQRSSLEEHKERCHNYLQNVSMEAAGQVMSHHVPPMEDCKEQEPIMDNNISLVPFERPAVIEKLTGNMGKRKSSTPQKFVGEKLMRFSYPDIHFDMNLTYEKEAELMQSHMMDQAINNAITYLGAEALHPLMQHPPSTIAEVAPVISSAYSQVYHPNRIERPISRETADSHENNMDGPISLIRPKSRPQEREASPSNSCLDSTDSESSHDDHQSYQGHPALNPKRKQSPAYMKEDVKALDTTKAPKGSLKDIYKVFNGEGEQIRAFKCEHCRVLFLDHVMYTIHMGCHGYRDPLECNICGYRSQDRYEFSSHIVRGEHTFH
Sequence (Q96SW2 whole entry): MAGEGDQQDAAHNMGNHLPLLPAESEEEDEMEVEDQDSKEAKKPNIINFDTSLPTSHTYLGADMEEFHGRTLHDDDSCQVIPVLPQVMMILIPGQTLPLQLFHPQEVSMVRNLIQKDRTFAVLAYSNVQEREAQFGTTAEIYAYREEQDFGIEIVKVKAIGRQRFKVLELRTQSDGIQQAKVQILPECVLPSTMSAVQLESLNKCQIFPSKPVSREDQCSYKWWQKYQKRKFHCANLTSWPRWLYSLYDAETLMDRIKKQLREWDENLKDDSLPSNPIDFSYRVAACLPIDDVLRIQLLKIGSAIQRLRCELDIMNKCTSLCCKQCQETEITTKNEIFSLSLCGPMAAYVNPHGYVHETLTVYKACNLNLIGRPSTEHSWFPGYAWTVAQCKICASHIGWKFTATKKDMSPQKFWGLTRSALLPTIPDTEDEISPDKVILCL
Sequence (Q16531 2-1140 partner): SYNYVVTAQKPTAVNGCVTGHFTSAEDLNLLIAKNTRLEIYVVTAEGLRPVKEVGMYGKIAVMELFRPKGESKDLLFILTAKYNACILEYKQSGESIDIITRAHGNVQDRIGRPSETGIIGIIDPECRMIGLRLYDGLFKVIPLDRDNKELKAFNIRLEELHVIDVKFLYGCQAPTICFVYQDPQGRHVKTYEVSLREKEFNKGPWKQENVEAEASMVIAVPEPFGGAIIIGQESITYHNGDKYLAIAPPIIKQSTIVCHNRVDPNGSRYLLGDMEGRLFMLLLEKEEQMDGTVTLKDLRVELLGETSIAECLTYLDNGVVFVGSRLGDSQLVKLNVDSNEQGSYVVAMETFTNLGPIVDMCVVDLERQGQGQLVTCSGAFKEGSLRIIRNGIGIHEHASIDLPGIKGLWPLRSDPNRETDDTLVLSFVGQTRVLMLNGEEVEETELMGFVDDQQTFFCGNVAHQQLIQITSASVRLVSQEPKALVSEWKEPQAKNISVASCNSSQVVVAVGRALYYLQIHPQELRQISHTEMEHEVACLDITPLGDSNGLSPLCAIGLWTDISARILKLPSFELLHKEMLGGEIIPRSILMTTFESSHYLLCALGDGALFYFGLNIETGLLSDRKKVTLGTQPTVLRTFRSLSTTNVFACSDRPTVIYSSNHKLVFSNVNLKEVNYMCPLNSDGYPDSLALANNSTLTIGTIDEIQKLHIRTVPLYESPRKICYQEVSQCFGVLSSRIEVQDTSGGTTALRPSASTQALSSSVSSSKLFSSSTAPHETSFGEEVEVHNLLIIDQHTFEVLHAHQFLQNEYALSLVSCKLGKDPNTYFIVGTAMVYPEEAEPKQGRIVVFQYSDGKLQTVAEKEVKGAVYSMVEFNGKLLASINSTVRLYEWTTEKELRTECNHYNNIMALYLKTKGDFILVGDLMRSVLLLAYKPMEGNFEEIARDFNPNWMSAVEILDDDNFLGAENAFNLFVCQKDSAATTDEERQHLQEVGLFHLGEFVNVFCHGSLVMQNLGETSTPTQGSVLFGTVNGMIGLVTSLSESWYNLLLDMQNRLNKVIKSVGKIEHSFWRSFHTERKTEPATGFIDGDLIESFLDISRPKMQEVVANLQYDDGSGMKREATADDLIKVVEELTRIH
Test: In vitro IKZF2 HiBit Assay (HEK293T Flp-in-HiBiT cells)
Format: cell-based
Details: HEK-293T; HEK293T Flp-in-HiBiT cells, 6 hrs incubation; read-out: IKZF2 HiBit Dmax (%)
assay-readout: Dmax

>>> assay_result("CN1C2CCC1CN(Cc1cc(-c3ccc4c(c3)CN(C3CCC(=O)NC3=O)C4=O)nc3c1ccn3C)C2 (stereo not shown) [Example 311]")
"60 to 80%"
>>> assay_result("O=C1CCC(N2Cc3cc(-c4cc(CN5CCCC5)c5ncn(C6CS(=O)(=O)C6)c5n4)ccc3C2=O)C(=O)N1 (stereo not shown) [Example 225]")
"20 to 40%"
>>> assay_result("Cn1ccc2c(CN3CCC3)cc(-c3ccc4c(c3)CN(C3CCC(=O)NC3=O)C4=O)nc21 (stereo not shown) [Example 56]")
"> 80%"

Problem: Query Dmax on IKZF2 (Homo sapiens (Human), UniProt Q96SW2+Q9UKS7) for O=C1CCC(N2Cc3cc(-c4cc(CN5CCCC5C(F)(F)F)c5ccn(C6COC6)c5n4)ccc3C2=O)C(=O)N1 (stereo not shown) [Example 253]
Result: 40 to 60%

Problem: Query Dmax on IKZF2 (Homo sapiens (Human), UniProt Q96SW2+Q9UKS7) for O=C1CCC(N2Cc3cc(-c4cc(CN5CCCC5)c5cn(C6CCC6)nc5n4)ccc3C2=O)C(=O)N1 (stereo not shown) [Example 316]
Result: > 80%

Problem: Query Dmax on IKZF2 (Homo sapiens (Human), UniProt Q96SW2+Q9UKS7) for O=C1CCC(N2Cc3cc(-c4cc(CN5CCCC5)c5[nH]ncc5n4)ccc3C2=O)C(=O)N1 (stereo not shown) [Example 307]
Result: > 80%

Problem: Query Dmax on IKZF2 (Homo sapiens (Human), UniProt Q96SW2+Q9UKS7) for Nc1n[nH]c2c(CN3CCC(O)C3)cc(-c3ccc4c(c3)CN(C3CCC(=O)NC3=O)C4=O)nc12 (stereo not shown) [Example 196]
Result: 40 to 60%

----------
Target: IKZF2 (Homo sapiens (Human), UniProt Q96SW2+Q9UKS7)
Assay: In vitro IKZF2 HiBit Assay (HEK293T Flp-in-HiBiT cells)
Assay type: cell-based
Settings: HEK-293T; HEK293T Flp-in-HiBiT cells, 6 hrs incubation; read-out: IKZF2 HiBit Dmax (%)
assay-readout: Dmax

>>> assay_result("O=C1CCC(N2Cc3c(ccc(-c4cc(CN5CCCC5)c5[nH]nc(NC6CCC6)c5n4)c3F)C2=O)C(=O)N1 (stereo not shown)")
"> 80%"

Problem: So what does the record say about Dmax for O=C1CCC(N2Cc3cc(-c4cc(CN5CCC(CO)C5)c5ccn(C6CC6)c5n4)ccc3C2=O)C(=O)N1 (stereo not shown) ?
Result: > 80%

Problem: So what does the record say about Dmax for O=C1CCC(N2Cc3cc(-c4cc(CN5CCC(O)C5)c5ccn(C6CC6)c5n4)ccc3C2=O)C(=O)N1 (stereo not shown) ?
Result: > 80%

Problem: So what does the record say about Dmax for Cn1ccc2c(CN3CC4CCCC4C3)cc(-c3ccc4c(c3)CN(C3CCC(=O)NC3=O)C4=O)nc21 (stereo not shown) ?
Result: > 80%

Problem: So what does the record say about Dmax for Cn1ccc2c(CN3CCS(=O)(=O)CC3)cc(-c3ccc4c(c3)CN(C3CCC(=O)NC3=O)C4=O)nc21 (stereo not shown) ?
Result: 20 to 40%

Problem: So what does the record say about Dmax for Nc1n[nH]c2c(CN3CCC(O)CC3)cc(-c3ccc4c(c3)CN(C3CCC(=O)NC3=O)C4=O)nc12 (stereo not shown) ?
Result: 60 to 80%

Problem: So what does the record say about Dmax for O=C1CCC(N2Cc3cc(-c4cc(CN5CCCC5)c5cn[nH]c5n4)ccc3C2=O)C(=O)N1 (stereo not shown) ?
Result: > 80%
